Field: kon. Provide a value for each of the binders that follow.
- MEASURED_ON: T1, cynomolgus monkey BCMA (cynomolgus monkey, UniProt A0A2K5UD97 1-53)
- T1 construct: Soluble analyte in SPR; construct not described; also called cyBCMA; Cyno BCMA
- PROTOCOL_NOTES: SPR, IgG immobilised, 37 C
Answers are plain numbers, in M⁻¹ s⁻¹.

L3.PY/H3.TAQ (antibody, V domains shown, IgG) VH: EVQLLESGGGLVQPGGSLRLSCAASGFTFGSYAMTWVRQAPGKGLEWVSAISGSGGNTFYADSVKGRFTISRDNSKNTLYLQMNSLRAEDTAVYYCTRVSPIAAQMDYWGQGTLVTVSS VL: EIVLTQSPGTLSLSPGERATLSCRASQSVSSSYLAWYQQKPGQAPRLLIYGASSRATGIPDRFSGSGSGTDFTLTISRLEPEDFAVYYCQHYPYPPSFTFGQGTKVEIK :: 2.57e+06

Could you tell me kon for each of these binders? They are listed below.
1. L3.PY/L1.PS/H3.AQ (antibody, V domains shown, IgG) VH: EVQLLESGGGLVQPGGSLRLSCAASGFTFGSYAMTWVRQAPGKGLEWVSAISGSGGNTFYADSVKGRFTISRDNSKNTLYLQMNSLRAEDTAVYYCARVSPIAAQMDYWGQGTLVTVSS VL: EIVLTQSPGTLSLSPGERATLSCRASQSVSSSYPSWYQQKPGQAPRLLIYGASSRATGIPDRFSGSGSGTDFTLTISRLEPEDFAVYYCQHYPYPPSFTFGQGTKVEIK
2. L3.PY/L1.FF/P6E01 (antibody, V domains shown, IgG) VH: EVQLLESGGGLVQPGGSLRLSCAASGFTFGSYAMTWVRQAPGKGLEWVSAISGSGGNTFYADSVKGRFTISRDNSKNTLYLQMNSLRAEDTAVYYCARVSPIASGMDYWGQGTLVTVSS VL: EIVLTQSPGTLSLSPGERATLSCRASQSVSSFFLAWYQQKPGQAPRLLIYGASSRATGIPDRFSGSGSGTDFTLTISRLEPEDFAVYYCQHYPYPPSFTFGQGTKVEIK
3. L3.PY/H3.YA (antibody, V domains shown, IgG) VH: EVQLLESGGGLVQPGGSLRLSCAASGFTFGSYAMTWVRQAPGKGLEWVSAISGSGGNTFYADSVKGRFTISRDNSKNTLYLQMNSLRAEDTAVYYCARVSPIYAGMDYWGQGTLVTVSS VL: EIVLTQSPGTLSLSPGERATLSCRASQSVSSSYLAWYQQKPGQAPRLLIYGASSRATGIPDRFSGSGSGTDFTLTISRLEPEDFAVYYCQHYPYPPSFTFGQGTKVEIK

Result:
["2.52e+06", "2.45e+06", "2.87e+06"]

Q: Which kon reading was recorded for the binder L3.PY/H2.YQ (antibody, V domains shown, IgG) VH: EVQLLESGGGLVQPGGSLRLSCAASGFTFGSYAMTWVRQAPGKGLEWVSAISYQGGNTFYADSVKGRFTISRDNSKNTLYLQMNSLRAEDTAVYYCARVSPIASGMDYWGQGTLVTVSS VL: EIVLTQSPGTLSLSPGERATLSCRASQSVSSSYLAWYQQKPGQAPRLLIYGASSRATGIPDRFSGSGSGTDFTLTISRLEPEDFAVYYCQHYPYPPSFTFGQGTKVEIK ?
Result: 2.46e+06
